pIC50, Beta-secretase 1 (Homo sapiens, UniProt P56817): measured values
pIC50: −log10 of the molar value.
OUTCOME MEASURE: pIC50

[[record]]
structure_string = "C[C@@H](NC(=O)c1cc(C(=O)N[C@@H](Cc2ccccc2)[C@H](O)CNC2CC2)cc(-c2cn(Cc3ccccc3)nn2)c1)c1ccccc1"
endpoint_result = 5.90

[[record]]
structure_string = "C[C@@H](NC(=O)c1cc(C(=O)N[C@@H](Cc2ccccc2)[C@H](O)CNC2CC2)cc(-c2ccc(Cl)cc2)c1)c1ccccc1"
endpoint_result = 6.09

[[record]]
structure_string = "C[C@@H](NC(=O)c1cc(C(=O)N[C@@H](Cc2ccccc2)[C@H](O)CNC2CC2)cc2c1CCCCO2)c1ccc(F)cc1"
endpoint_result = 6.58

[[record]]
structure_string = "C[C@@H](NC(=O)c1cc(C(=O)N[C@@H](Cc2ccccc2)[C@H](O)CNC2CC2)cc2c1CCCO2)c1ccccc1"
endpoint_result = 7.20

[[record]]
structure_string = "C[C@@H](NC(=O)c1cc2c(c(C(=O)N[C@@H](Cc3ccccc3)[C@H](O)CNC3CC3)c1)CCCO2)c1ccccc1"
endpoint_result = 6.95

